- tested-system: T1, endogenous cell surface human MSLN (human, UniProt Q13421 296-598)
- T1 construct: whole, on cells; The cell line is named under assay; also called cell-surface MSLN on NCI-H226, OVCAR-3 and AsPC-1 cells
- T1 sequence (Q13421 other isoform, or with tags, fused parts or gaps limits assumed): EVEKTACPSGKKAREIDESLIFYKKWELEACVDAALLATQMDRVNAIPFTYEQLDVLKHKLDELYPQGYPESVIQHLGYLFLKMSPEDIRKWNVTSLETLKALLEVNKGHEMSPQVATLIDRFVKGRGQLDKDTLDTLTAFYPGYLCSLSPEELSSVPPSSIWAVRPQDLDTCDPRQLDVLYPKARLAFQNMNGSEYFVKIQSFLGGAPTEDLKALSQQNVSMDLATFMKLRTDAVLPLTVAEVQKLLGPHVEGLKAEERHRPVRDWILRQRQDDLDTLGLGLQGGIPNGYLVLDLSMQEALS
- method-notes: flow cytometry, NCI-H226 cells + 20 nM soluble MSLN
Please provide measured EC50 for the entries that follow.
Answers are plain numbers, in nM.

Example entries and their recorded answers appear below.
{"binder": "FS22-172-003-AA/FS28-256-026 (bispecific antibody, human IgG1, kappa, L234A L235A, V domains shown, IgG1 mAb^2 with LALA) VH: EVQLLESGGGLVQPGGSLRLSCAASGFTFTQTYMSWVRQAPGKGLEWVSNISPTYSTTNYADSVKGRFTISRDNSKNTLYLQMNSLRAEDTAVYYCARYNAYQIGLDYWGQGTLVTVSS VL: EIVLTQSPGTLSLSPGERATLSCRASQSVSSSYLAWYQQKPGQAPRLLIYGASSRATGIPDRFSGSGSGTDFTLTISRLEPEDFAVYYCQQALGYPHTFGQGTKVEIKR", "assay-readout": "EC50", "unit-annotation": "nM", "observed-result": 2.68}
{"binder": "FS22-172-003-AA/FS28-024-052 (bispecific antibody, human IgG1, kappa, L234A L235A, V domains shown, IgG1 mAb^2 with LALA) VH: EVQLLESGGGLVQPGGSLRLSCAASGFTLSYSSMSWVRQAPGKGLEWVSFITPSTGYTHYADSVKGRFTISRDNSKNTLYLQMNSLRAEDTAVYYCARRALLFDYWGQGTLVTVSS VL: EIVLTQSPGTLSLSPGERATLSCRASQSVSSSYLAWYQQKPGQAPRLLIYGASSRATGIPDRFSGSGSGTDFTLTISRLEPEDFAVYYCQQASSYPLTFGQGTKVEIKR", "assay-readout": "EC50", "unit-annotation": "nM", "observed-result": 3.64}

Quick check: EC50 of FS22-172-003-AA/FS28-256-018 (bispecific antibody, human IgG1, kappa, L234A L235A, V domains shown, IgG1 mAb^2 with LALA) VH: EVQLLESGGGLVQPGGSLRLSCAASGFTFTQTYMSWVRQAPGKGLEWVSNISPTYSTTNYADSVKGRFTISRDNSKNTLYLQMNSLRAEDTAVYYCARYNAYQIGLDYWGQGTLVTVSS VL: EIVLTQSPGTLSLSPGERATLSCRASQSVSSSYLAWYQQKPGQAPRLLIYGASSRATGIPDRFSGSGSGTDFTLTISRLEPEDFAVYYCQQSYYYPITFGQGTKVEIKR ?
4.09
